This collection of values is drawn from paper PMC8772704.

# TEST PROTOCOL: Long-term storage stability of antibiotics in combination with fosfomycin spiked in plasma/CAMHB (−30 °C, −80 °C)
# Format: physicochemical
# TEST PARAMETERS: plasma, combination with fosfomycin, 4 weeks at -30 °C; HQC (nominal as E15)
Mean accuracy (%), Table S12 values for the compounds below.
Give the number; % is assumed, so skip it.

Below are worked cases with known answers.
compound="CC(C)(O/N=C(\\C(=O)N[C@@H]1C(=O)N2C(C(=O)[O-])=C(C[n+]3ccccc3)CS[C@H]12)c1csc(N)n1)C(=O)O [Ceftazidime, ceftazidime]" experimental_result=100.3
compound="C[C@]1(Cn2ccnn2)[C@H](C(=O)O)N2C(=O)C[C@H]2S1(=O)=O [Tazobactam, tazobactam]" experimental_result=96.4

Exam item: Which Mean accuracy (%), Table S12 is reported for this compound? C[C@H]1[C@H](NC(=O)/C(=N\OC(C)(C)C(=O)O)c2csc(N)n2)C(=O)N1S(=O)(=O)O [Aztreonam, aztreonam]
Marked response: 96.1

Exam item: Same thing, different compound: C[C@@H](O)[C@H]1C(=O)N2C(C(=O)O)=C(S[C@@H]3CN[C@H](CNS(N)(=O)=O)C3)[C@H](C)[C@H]12 [Doripenem, doripenem]
Marked response: 102.4

Exam item: Same thing, different compound: C[C@@H](O)[C@H]1C(=O)N2C(C(=O)O)=C(S[C@@H]3CN[C@H](C(=O)N(C)C)C3)[C@H](C)[C@H]12 [Meropenem, meropenem]
Marked response: 91.8

Exam item: Same thing, different compound: NC(=O)[C@@H]1CC[C@@H]2CN1C(=O)N2OS(=O)(=O)O [Avibactam, avibactam]
Marked response: 87.3
